# test-target: interaction between HIF-1α and p300 (His-HIF-1α / GST-p300) (Homo sapiens, UniProt Q09472+Q16665)
# Construct: corresponding to the C-terminal 390 amino acids into vector pET28a; A plasmid containing the N-terminal 595 amino acids of human p300; made in house; host or cells: E. coli
# Sequence (Q16665 437-826 limits assumed): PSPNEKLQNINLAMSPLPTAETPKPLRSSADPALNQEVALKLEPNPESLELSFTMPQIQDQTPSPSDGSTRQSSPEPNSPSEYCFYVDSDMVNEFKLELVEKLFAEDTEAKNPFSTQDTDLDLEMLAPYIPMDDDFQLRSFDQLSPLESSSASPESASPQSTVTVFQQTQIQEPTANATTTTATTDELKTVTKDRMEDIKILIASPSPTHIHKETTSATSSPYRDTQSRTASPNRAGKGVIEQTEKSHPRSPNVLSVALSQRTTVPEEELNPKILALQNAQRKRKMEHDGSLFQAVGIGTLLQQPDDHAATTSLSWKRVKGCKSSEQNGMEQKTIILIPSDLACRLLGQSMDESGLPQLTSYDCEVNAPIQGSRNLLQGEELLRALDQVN
# Sequence (Q09472 1-595 limits assumed): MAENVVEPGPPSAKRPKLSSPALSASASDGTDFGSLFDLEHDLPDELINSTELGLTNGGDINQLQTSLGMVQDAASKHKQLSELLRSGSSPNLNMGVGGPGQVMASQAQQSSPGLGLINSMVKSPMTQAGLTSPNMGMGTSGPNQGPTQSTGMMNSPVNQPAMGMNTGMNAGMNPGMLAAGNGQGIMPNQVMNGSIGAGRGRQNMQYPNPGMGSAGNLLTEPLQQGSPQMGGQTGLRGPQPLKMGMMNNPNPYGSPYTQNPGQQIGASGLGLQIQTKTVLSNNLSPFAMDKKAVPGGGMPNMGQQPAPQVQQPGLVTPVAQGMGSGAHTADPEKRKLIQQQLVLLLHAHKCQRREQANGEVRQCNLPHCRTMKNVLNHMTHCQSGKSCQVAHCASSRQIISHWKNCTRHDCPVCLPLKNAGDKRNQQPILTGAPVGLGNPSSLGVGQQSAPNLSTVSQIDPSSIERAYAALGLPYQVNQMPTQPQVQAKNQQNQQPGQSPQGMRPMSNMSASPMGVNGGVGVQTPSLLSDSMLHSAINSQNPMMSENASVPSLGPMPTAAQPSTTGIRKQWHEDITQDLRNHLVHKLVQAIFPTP
# assay-summary: Primary assay: fluorescence-based (DELFIA) screening assay for inhibition of the HIF-1α/p300 interaction
# Assay type: binding
measurement-label: log10 of IC50 (log10 of the value in µM)
Quick note: numbers are log10 of IC50, with µM as the unit.

Quick request: log10 of IC50 for each listed item, please.
1. COc1ccccc1C=C1C(=O)NC(=S)NC1=O [PX105993]
2. CN(CCC#N)c1ccc(C=C2C(=O)NC(=S)NC2=O)cc1 [PX089643]
3. Cc1ccccc1N1C(=O)/C(=C/c2ccco2)C(=O)NC1=S [PX106130]
4. O=C1NC(=S)NC(=O)C1=Cc1ccc(-c2cc(C(F)(F)F)cc(C(F)(F)F)c2)o1 [PX075367]
5. COc1ccc(C=C2C(=O)NC(=O)NC2=O)c(Cl)c1OC [PX074728]
6. COc1ccc(C=C2C(=O)NC(=O)NC2=O)cc1 [PX089375]

Return:
1.90
1.74
1.46
1.65
2.10
2.30

----------
# test-target: interaction between HIF-1α and p300 (His-HIF-1α / GST-p300) (Homo sapiens, UniProt Q09472+Q16665)
# Construct: corresponding to the C-terminal 390 amino acids into vector pET28a; A plasmid containing the N-terminal 595 amino acids of human p300; made in house; host or cells: E. coli
# assay-summary: Primary assay: fluorescence-based (DELFIA) screening assay for inhibition of the HIF-1α/p300 interaction
# Assay type: binding
pIC50: −log10 of the molar value.
Param threshold (4) applies to pIC50; output yes (1) when value >= threshold, no (0) when value < threshold.

Use these answered entries as a reference point.
compound=O=C1NC(=O)C(=Cc2ccccc2)C(=O)N1 class="no (0)"
compound=COc1ccc(OC)c(C=C2C(=O)NC(=O)NC2=O)c1 class="no (0)"
compound=O=C1NC(=S)NC(=O)C1=Cc1c[nH]c2ccccc12 class="yes (1)"
compound=O=C1NC(=S)NC(=O)C1=Cc1ccccc1OCc1ccccc1F class="yes (1)"
compound=COc1ccc(C=C2C(=O)NC(=S)NC2=O)cc1OC class="yes (1)"
compound=O=C1NC(=S)NC(=O)C1=Cc1ccco1 class="yes (1)"

Enquiry: Reported pIC50 at or above 4? `O=C1NC(=O)C(=Cc2c(F)cccc2Cl)C(=O)N1`
Return: no (0)

Enquiry: Reported pIC50 at or above 4? `Cc1ccc(N2C(=O)/C(=C/c3ccoc3)C(=O)NC2=S)cc1`
Return: yes (1)

Enquiry: Reported pIC50 at or above 4? O=C1NC(=O)C(=CC2CC=CCC2)C(=O)N1 (centres unmarked)
Return: no (0)
